The reported numbers originate from ChEMBL document CHEMBL5120865.

Experiment: Cytotoxicity against human MRC5 cells assessed as reduction in cell viability incubated for 3 days by resazurin dye based fluorescence analysis
Type: toxicity
Details: time 3 day
property: CC50 at 72 h

### Prompt Report CC50 at 72 h for Cc1ncnc2c1c(-c1cc3ccccc3o1)cn2[C@@H]1O[C@H](CO)[C@@H](O)[C@H]1O please.
### Response 45.8 µM

### Prompt Report CC50 at 72 h for Cc1ncnc2c1c(-c1ncccc1Cl)cn2[C@@H]1O[C@H](CO)[C@@H](O)[C@H]1O please.
### Response > 64 µM

### Prompt Report CC50 at 72 h for Cc1ncnc2c1c(-c1ccccc1[N+](=O)[O-])cn2[C@@H]1O[C@H](CO)[C@@H](O)[C@H]1O please.
### Response > 64 µM

### Prompt Report CC50 at 72 h for Cc1ncnc2c1c(-c1ccncc1)cn2[C@@H]1O[C@H](CO)[C@@H](O)[C@H]1O please.
### Response > 64 µM

### Prompt Report CC50 at 72 h for Cc1ncnc2c1c(-c1cnn(C)c1)cn2[C@@H]1O[C@H](CO)[C@@H](O)[C@H]1O please.
### Response > 64 µM

### Prompt Report CC50 at 72 h for Cc1ncnc2c1c(-c1ccccn1)cn2[C@@H]1O[C@H](CO)[C@@H](O)[C@H]1O please.
### Response > 64 µM

### Prompt Report CC50 at 72 h for Cc1ncnc2c1c(-c1ccc[nH]1)cn2[C@@H]1O[C@H](CO)[C@@H](O)[C@H]1O please.
### Response 12.9 µM

### Prompt Report CC50 at 72 h for COc1ccnc(-c2cn([C@@H]3O[C@H](CO)[C@@H](O)[C@H]3O)c3ncnc(C)c23)c1 please.
### Response > 64 µM

### Prompt Report CC50 at 72 h for Oc1ncnc2[nH]ncc12 [ALLOPURINOL] please.
### Response > 64 µM

### Prompt Report CC50 at 72 h for Cc1ncnc2c1c(-c1ccoc1)cn2[C@@H]1O[C@H](CO)[C@@H](O)[C@H]1O please.
### Response > 64 µM

### Prompt Report CC50 at 72 h for CSc1ccccc1-c1cn([C@@H]2O[C@H](CO)[C@@H](O)[C@H]2O)c2ncnc(C)c12 please.
### Response > 64 µM

### Prompt Report CC50 at 72 h for Cc1ncnc2c1c(CCc1ccccn1)cn2[C@@H]1O[C@H](CO)[C@@H](O)[C@H]1O please.
### Response > 64 µM

### Prompt Report CC50 at 72 h for Cc1ncnc2c1c(-c1cccc3ccn(C)c13)cn2[C@@H]1O[C@H](CO)[C@@H](O)[C@H]1O please.
### Response > 64 µM

### Prompt Report CC50 at 72 h for Cc1ncnc2c1c(-c1cccc3c1oc1ccccc13)cn2[C@@H]1O[C@H](CO)[C@@H](O)[C@H]1O please.
### Response 12.7 µM

### Prompt Report CC50 at 72 h for Cc1ncnc2c1c(-c1ccc3ccccc3n1)cn2[C@@H]1O[C@H](CO)[C@@H](O)[C@H]1O please.
### Response > 64 µM

### Prompt Report CC50 at 72 h for Cc1ncnc2c1c(-c1cccnc1)cn2[C@@H]1O[C@H](CO)[C@@H](O)[C@H]1O please.
### Response > 64 µM

### Prompt Report CC50 at 72 h for Cc1ncnc2c1c(-c1cccc3c1N=CC3)cn2[C@@H]1O[C@H](CO)[C@@H](O)[C@H]1O please.
### Response > 64 µM

### Prompt Report CC50 at 72 h for Cc1ncnc2c1c(-c1cccc(F)n1)cn2[C@@H]1O[C@H](CO)[C@@H](O)[C@H]1O please.
### Response > 64 µM

### Prompt Report CC50 at 72 h for Cc1ncnc2c1c(-c1ncccn1)cn2[C@@H]1O[C@H](CO)[C@@H](O)[C@H]1O please.
### Response > 64 µM

### Prompt Report CC50 at 72 h for Cc1ncnc2c1c(-c1ccccc1Cl)cn2[C@@H]1O[C@H](CO)[C@@H](O)[C@H]1O please.
### Response > 64 µM

### Prompt Report CC50 at 72 h for Cc1ncnc2c1c(-c1cccc3cccnc13)cn2[C@@H]1O[C@H](CO)[C@@H](O)[C@H]1O please.
### Response > 64 µM

### Prompt Report CC50 at 72 h for Cc1ncnc2c1c(-c1nccs1)cn2[C@@H]1O[C@H](CO)[C@@H](O)[C@H]1O please.
### Response 6.06 µM

### Prompt Report CC50 at 72 h for Cc1ncnc2c1c(-c1ccccc1F)cn2[C@@H]1O[C@H](CO)[C@@H](O)[C@H]1O please.
### Response > 64 µM

### Prompt Report CC50 at 72 h for Cc1ncnc2c1c(-c1cc[nH]n1)cn2[C@@H]1O[C@H](CO)[C@@H](O)[C@H]1O please.
### Response 27.9 µM

### Prompt Report CC50 at 72 h for Cc1ncnc2c1c(/C=C/c1ccccn1)cn2[C@@H]1O[C@H](CO)[C@@H](O)[C@H]1O please.
### Response > 64 µM

### Prompt Report CC50 at 72 h for Cc1ncnc2c1c(-c1cc3ccccc3[nH]1)cn2[C@@H]1O[C@H](CO)[C@@H](O)[C@H]1O please.
### Response 14.8 µM

### Prompt Report CC50 at 72 h for Cc1ncnc2c1c(-c1cccc(Cl)n1)cn2[C@@H]1O[C@H](CO)[C@@H](O)[C@H]1O please.
### Response > 64 µM

### Prompt Report CC50 at 72 h for Cc1ncnc2c1c(-c1cncnc1)cn2[C@@H]1O[C@H](CO)[C@@H](O)[C@H]1O please.
### Response > 64 µM

====

Kindly supply the reported remaining at 1 h values for the records listed here.
Experiment: Metabolic stability in golden hamster liver microsomes S9 fraction assessed as UGT-mediated metabolism by measuring parent compound remaining measured after 60 mins in presence of NADPH
Type: ADME, subcellular, Mesocricetus auratus
Conditions: read-out: Stability

### Prompt Report remaining at 1 h for Cc1ncnc2c1c(-c1cc(Cl)ccn1)cn2[C@@H]1O[C@H](CO)[C@@H](O)[C@H]1O please.
### Response 89%

### Prompt Report remaining at 1 h for Cc1ncnc2c1c(-c1ncccc1Cl)cn2[C@@H]1O[C@H](CO)[C@@H](O)[C@H]1O please.
### Response 96%

====

Kindly supply the reported remaining at 0.5 h values for the records listed here.
Biological target: Cytochrome P450 (Homo sapiens, UniProt P04798+P05177+P05181+P08684+P10632+P10635+P11509+P11712+P13584+P20813+P20815+P20853+P24462+P24903+P33260+P33261+P51589+P78329+P98187+Q02928+Q08477+Q16678+Q16696+Q5TCH4+Q6VVX0+Q7Z449+Q8TAV3+Q96SQ9+Q9HB55)
Assay: Metabolic stability in human liver microsomes S9 fraction assessed as CYP450-mediated metabolism by measuring parent compound remaining measured after 30 mins in presence of NADPH
Type: ADME, subcellular
Conditions: read-out: Stability
The response must be a number in % with no trailing unit.

### Prompt Report remaining at 0.5 h for Cc1ncnc2c1c(-c1cc(Cl)ccn1)cn2[C@@H]1O[C@H](CO)[C@@H](O)[C@H]1O please.
### Response 86

### Prompt Report remaining at 0.5 h for Cc1ncnc2c1c(-c1ncccc1Cl)cn2[C@@H]1O[C@H](CO)[C@@H](O)[C@H]1O please.
### Response 100

====

Assay: Metabolic stability in mouse liver microsomes S9 fraction assessed as CYP450-mediated metabolism by measuring parent compound remaining measured after 30 mins in presence of NADPH
Format: ADME, subcellular
Conditions: read-out: Stability
Kindly supply the reported remaining at 0.5 h values for the records listed here.
The response must be a number in % with no trailing unit.

### Prompt Report remaining at 0.5 h for Cc1ncnc2c1c(-c1cc(Cl)ccn1)cn2[C@@H]1O[C@H](CO)[C@@H](O)[C@H]1O please.
### Response 86

### Prompt Report remaining at 0.5 h for Cc1ncnc2c1c(-c1ncccc1Cl)cn2[C@@H]1O[C@H](CO)[C@@H](O)[C@H]1O please.
### Response 83

====

Test system: Trypanosoma cruzi
Assay: Antitrypanosomal activity against nifurtimox-sensitive Tulahuen CL2 amastigotes expressing beta galactosidase infected in human MRC5 cells assessed as inhibition of parasite growth using chlorophenol red beta-D-galactopyranoside as substrate and measured after 7 days by spectrophotometric analysis
Type: functional, organism-based
Conditions: Tulahuen CL2, MRC5, 168 h, read-out: EC50
Cut-off 3 µM on EC50: below means true, at or above means false.

### Prompt Consider Cc1ncnc2c1c(-c1ccc[nH]1)cn2[C@@H]1O[C@H](CO)[C@@H](O)[C@H]1O . Does its EC50 lie strictly below 3 µM?
### Response true

### Prompt Consider Cc1ncnc2c1c(-c1ccccn1)cn2[C@@H]1O[C@H](CO)[C@@H](O)[C@H]1O . Does its EC50 lie strictly below 3 µM?
### Response true

### Prompt Consider Cc1ncnc2c1c(-c1cncnc1)cn2[C@@H]1O[C@H](CO)[C@@H](O)[C@H]1O . Does its EC50 lie strictly below 3 µM?
### Response false

### Prompt Consider Cc1ncnc2c1c(-c1cc(Cl)ccn1)cn2[C@@H]1O[C@H](CO)[C@@H](O)[C@H]1O . Does its EC50 lie strictly below 3 µM?
### Response true

### Prompt Consider Cc1ncnc2c1c(-c1cc3ccccc3[nH]1)cn2[C@@H]1O[C@H](CO)[C@@H](O)[C@H]1O . Does its EC50 lie strictly below 3 µM?
### Response true

### Prompt Consider Cc1ncnc2c1c(-c1ccc(Cl)cn1)cn2[C@@H]1O[C@H](CO)[C@@H](O)[C@H]1O . Does its EC50 lie strictly below 3 µM?
### Response true

### Prompt Consider Cc1ncnc2c1c(-c1cccc3c1N=CC3)cn2[C@@H]1O[C@H](CO)[C@@H](O)[C@H]1O . Does its EC50 lie strictly below 3 µM?
### Response false

### Prompt Consider Cc1ncnc2c1c(-c1nccs1)cn2[C@@H]1O[C@H](CO)[C@@H](O)[C@H]1O . Does its EC50 lie strictly below 3 µM?
### Response true

### Prompt Consider Cc1ncnc2c1c(-c1cccc3cccnc13)cn2[C@@H]1O[C@H](CO)[C@@H](O)[C@H]1O . Does its EC50 lie strictly below 3 µM?
### Response false

### Prompt Consider Cc1ncnc2c1c(-c1ncccc1Cl)cn2[C@@H]1O[C@H](CO)[C@@H](O)[C@H]1O . Does its EC50 lie strictly below 3 µM?
### Response true

### Prompt Consider Cc1ncnc2c1c(-c1ncccn1)cn2[C@@H]1O[C@H](CO)[C@@H](O)[C@H]1O . Does its EC50 lie strictly below 3 µM?
### Response false
